# assayed_system: UniProt:P42676
# assay_remarks: Activation of recombinant rat Nln using MCA-Pro-Leu-Gly-Pro-D-Lys (DNP)-OH as substrate preincubated for 10 mins followed by substrate addition and measured after 20 mins by fluorescence based assay
Record form. Attribute: EC50. Fill in for each entry.
Only the number, expressed in µM, is required.

Form: molecule = "N[C@@H](Cc1c[nH]cn1)C(=O)Nc1ccc(C(F)(F)F)cc1" ; EC50 = 32.2

Form: molecule = "COc1ccc(NC(=O)[C@H](N)Cc2c[nH]cn2)cc1" ; EC50 = 214

Form: molecule = "N[C@@H](Cc1c[nH]cn1)C(=O)Nc1cccc(C(F)(F)F)c1" ; EC50 = 28.6

Form: molecule = "N[C@H](Cc1c[nH]cn1)C(=O)Nc1ccccc1F" ; EC50 = 78.2

Form: molecule = "N[C@H](Cc1c[nH]cn1)C(=O)Nc1ccc(C(F)(F)F)cc1" ; EC50 = 15.6

Form: molecule = "N[C@@H](Cc1c[nH]cn1)C(=O)Nc1c(F)cc(Br)cc1F" ; EC50 = 26.7

Form: molecule = "COc1ccccc1NC(=O)[C@H](N)Cc1c[nH]cn1" ; EC50 = 53.5

Form: molecule = "COc1cccc(NC(=O)[C@H](N)Cc2c[nH]cn2)c1" ; EC50 = 121

Form: molecule = "N[C@@H](Cc1c[nH]cn1)C(=O)Nc1cccc(F)c1" ; EC50 = 24.8

Form: molecule = "N[C@H](Cc1c[nH]cn1)C(=O)Nc1ccc(F)cc1" ; EC50 = 36.1

Form: molecule = "N[C@@H](Cc1c[nH]cn1)C(=O)Nc1cc(F)cc(F)c1" ; EC50 = 90.6

====

# assayed_system: Neurolysin, mitochondrial (Rattus norvegicus, UniProt P42676)
# Sequence (P42676 whole entry): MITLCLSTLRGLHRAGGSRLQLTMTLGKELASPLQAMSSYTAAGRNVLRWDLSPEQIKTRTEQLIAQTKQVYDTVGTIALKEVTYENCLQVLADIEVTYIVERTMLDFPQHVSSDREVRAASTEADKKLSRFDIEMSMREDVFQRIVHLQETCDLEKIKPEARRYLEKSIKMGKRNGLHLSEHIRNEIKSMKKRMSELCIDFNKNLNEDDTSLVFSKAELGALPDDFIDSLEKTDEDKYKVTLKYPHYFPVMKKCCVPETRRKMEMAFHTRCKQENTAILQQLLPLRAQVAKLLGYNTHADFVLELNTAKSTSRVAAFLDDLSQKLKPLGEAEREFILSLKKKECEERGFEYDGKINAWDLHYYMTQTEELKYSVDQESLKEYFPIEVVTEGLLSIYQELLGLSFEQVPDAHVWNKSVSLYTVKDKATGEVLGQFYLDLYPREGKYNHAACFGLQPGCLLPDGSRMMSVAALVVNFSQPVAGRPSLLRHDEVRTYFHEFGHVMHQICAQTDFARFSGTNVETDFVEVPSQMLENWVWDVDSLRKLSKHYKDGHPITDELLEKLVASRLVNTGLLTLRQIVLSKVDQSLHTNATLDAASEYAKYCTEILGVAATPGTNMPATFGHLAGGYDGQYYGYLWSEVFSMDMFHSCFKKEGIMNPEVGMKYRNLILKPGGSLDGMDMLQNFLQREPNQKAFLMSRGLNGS
# assay_remarks: Activation of recombinant rat Nln using MCA-Pro-Leu-Gly-Pro-D-Lys (DNP)-OH as substrate preincubated for 10 mins followed by substrate addition and measured after 20 mins by fluorescence based assay
Criterion: EC50 strictly less than 40 µM. Met: met. Not met: not met.

Request: State whether 40 µM exceeds EC50 recorded for "COc1cc(NC(=O)[C@@H](N)Cc2c[nH]cn2)cc(OC)c1OC" .
Response: not met

Request: State whether 40 µM exceeds EC50 recorded for "N[C@@H](Cc1c[nH]cn1)C(=O)Nc1cc(C(F)(F)F)cc(C(F)(F)F)c1" .
Response: not met

Request: State whether 40 µM exceeds EC50 recorded for "N[C@H](Cc1c[nH]cn1)C(=O)Nc1cccc(F)c1" .
Response: met

Request: State whether 40 µM exceeds EC50 recorded for "COc1cccc(NC(=O)[C@@H](N)Cc2c[nH]cn2)c1" .
Response: not met

Request: State whether 40 µM exceeds EC50 recorded for "N[C@@H](Cc1c[nH]cn1)C(=O)Nc1ccccc1F" .
Response: met

Request: State whether 40 µM exceeds EC50 recorded for "COc1ccccc1NC(=O)[C@@H](N)Cc1c[nH]cn1" .
Response: not met

Request: State whether 40 µM exceeds EC50 recorded for "N[C@H](Cc1c[nH]cn1)C(=O)Nc1cccc(C(F)(F)F)c1" .
Response: met

Request: State whether 40 µM exceeds EC50 recorded for "N[C@@H](Cc1c[nH]cn1)C(=O)Nc1ccc(F)cc1" .
Response: not met

Request: State whether 40 µM exceeds EC50 recorded for "N[C@@H](Cc1c[nH]cn1)C(=O)Nc1ccc(C(F)(F)F)cc1C(F)(F)F" .
Response: met

Request: State whether 40 µM exceeds EC50 recorded for "COc1ccc(NC(=O)[C@@H](N)Cc2c[nH]cn2)cc1" .
Response: not met

Request: State whether 40 µM exceeds EC50 recorded for "COc1cc(NC(=O)[C@@H](N)Cc2c[nH]cn2)cc(OC)c1" .
Response: not met
